Hello, the source for this data is patent US6218393A, in case you need it.

tested on: AR 1.0 cells; assay: Potentiation of doxorubicin toxicity: proliferation assay (sulphorhodamine B); type: cell-based, mouse; details: with fixed doxorubicin 0.34 μm; four days; 5760 min; read-out: Toxicity with Cytotoxic Agent (IC50)
pIC50: −log10 of the molar value.
pIC50 vs 8: at or above is Met, below is Not met.

Example entries and their recorded answers appear below.
item_smiles=CCCc1ccc(C(=O)Nc2ccccc2C(=O)NCCN2CCc3cc(OC)c(OC)cc3C2)cc1 tgt="AR 1.0 cells" category="Not met"
item_smiles=COc1cc2c(cc1OC)CN(CCc1ccc(NC(=O)c3ccccc3NC(=O)c3cnc4ccccc4n3)cc1)CC2 tgt="AR 1.0 cells" category=Met
item_smiles=COc1cc2c(cc1OC)CN(CCc1ccc(NC(=O)c3ccccc3NC(=O)c3ccc(C)nc3)cc1)CC2 tgt="AR 1.0 cells" category="Not met"

Check this compound for pIC50 at or above 8: COc1cc2c(cc1OC)CN(CCc1ccc(NC(=O)c3ccccc3NC(=O)c3ccccn3)cc1)CC2 Not met

Also, COc1ccc(C(=O)Nc2ccccc2C(=O)Nc2ccc(CCN3CCc4cc(OC)c(OC)cc4C3)cc2)cc1 please. Not met

Field entry: COc1cc2c(cc1OC)CN(CCc1ccc(NC(=O)c3ccccc3NC(=O)c3ccccc3OC(C)=O)cc1)CC2 Met
